Data origin: paper PMC7470113

Experiment: DPPH+ free radical scavenging antioxidant assay
Details: supplement, dose response curves; read-out: Antioxidant activity (DPPH+) dose response curve IC50
Value kind: pIC50
The read-out pIC50 is expressed as -log10 of concentration in moles per litre.

The compound CC1=NN(c2ccc(C(=O)NCc3cc[n+](Cc4ccccc4Br)cc3)cc2)C(=O)C1 showed pIC50 equal to 4.72

---

Record form. Attribute: pIC50. Fill in for each entry.
Biological target: eqBuChE (Equus caballus)
Sequence (P81908 whole entry): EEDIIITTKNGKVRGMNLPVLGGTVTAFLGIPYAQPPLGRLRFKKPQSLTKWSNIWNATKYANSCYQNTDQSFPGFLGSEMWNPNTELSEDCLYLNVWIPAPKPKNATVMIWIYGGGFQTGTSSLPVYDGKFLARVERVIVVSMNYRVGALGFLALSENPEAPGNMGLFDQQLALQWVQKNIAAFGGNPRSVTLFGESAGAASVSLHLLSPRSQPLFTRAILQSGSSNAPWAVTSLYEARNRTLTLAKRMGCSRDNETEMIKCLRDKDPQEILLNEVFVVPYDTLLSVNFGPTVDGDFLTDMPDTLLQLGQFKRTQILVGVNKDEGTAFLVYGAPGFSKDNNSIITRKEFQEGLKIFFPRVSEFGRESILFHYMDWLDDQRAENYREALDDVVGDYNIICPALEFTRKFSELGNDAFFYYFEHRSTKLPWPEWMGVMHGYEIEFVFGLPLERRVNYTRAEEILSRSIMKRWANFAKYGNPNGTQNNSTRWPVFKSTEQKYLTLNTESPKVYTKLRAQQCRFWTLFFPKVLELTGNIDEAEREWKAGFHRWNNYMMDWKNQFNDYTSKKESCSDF
Test: Cholinesterase inhibition assay (modified Ellman's method), eqBuChE
Conditions: 25 °C, triplicate, read-out: BuChE IC50
pIC50: −log10 of the molar value.

The molecule CC1=NN(c2ccc(C(=O)NCc3cc[n+](Cc4ccc(Br)cc4)cc3)cc2)C(=O)C1 showed pIC50 equal to < 3.00

The molecule CC1=NN(c2ccc(C(=O)NCc3cc[n+](Cc4ccc(F)cc4)cc3)cc2)C(=O)C1 showed pIC50 equal to < 3.00

The molecule CC1=NN(c2ccc(C(=O)NCc3cc[n+](Cc4cccc(C)c4)cc3)cc2)C(=O)C1 showed pIC50 equal to < 3.00
